- Tested on: LG0567-F671-PDC complex spheroids viability
- measurement_notes: Anticancer human tumor LG0567-F671-PDC patient-derived lung adenocarcinoma cell line growth inhibition [RAS]
- test_context: compound 1 µM; stronger effect = lower value
Recorded viability, T/C by entry

Before answering, review these 2 worked examples.
| compound | measured_target | result |
| --- | --- | --- |
| Cc1nc(N2CCC3(CC2)COC(C)C3N)c(CO)nc1Sc1ccnc(N)c1Cl (stereo not drawn) | LG0567-F671-PDC complex spheroids viability | 28.1% [middle of 4 runs] |
| CC(Nc1ccc2c(c1)OCCn1cc(N3C(=O)OCC3C(F)F)nc1-2)C(N)=O (stereo not drawn) | LG0567-F671-PDC complex spheroids viability | 43.4% [middle of 4 runs] |

Let us move to another entry and its viability, T/C.
Data request: Please look up its viability, T/C: `C[C@@H](NC(=O)c1ncnc(N)c1Cl)c1ncc(C(=O)Nc2cc(C(F)(F)F)c(Cl)cn2)s1`
Data returned: 121% [middle of 4 runs]

----------
- Tested on: LG0567-F671-PDC complex spheroids viability
- measurement_notes: Anticancer human tumor LG0567-F671-PDC cell line growth inhibition [RAS]; active means viability on the fitted dose curve at most 10% of control; inactive means the rest;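 further: spheroids exposed to compound for seven days before readout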
- test_context: second compound 0.03 µM; first compound 0.316 µM
Field 'call' accepts active, inactive

| compound | class_assignment |
| --- | --- |
| C[C@@H](NC(=O)c1ncnc(N)c1Cl)c1ncc(C(=O)Nc2cc(C(F)(F)F)c(Cl)cn2)s1 + CCn1c(-c2cccnc2C(C)OC)c2c3cc(ccc31)N1CCOC(CC(NC(=O)C(C(C)C)N(C)C(=O)C3(F)CCN(C(=O)C#CC(C)(C)N(C)C)CC3)C(=O)N3CCCC(N3)C(=O)OCC(C)(C)C2)C1 | inactive |
| CC(C)NCC(C(=O)N1CCN(c2ncnc3c2C(C)CC3O)CC1)c1ccc(Cl)cc1 (stereo unspecified) + CCn1c(-c2cc(N3CCN(C)CC3)cnc2C(C)OC)c2c3cc(ccc31)-c1csc(n1)CC(NC(=O)C1CC1C)C(=O)N1CCCC(N1)C(=O)OCC(C)(C)C2 | active |
| CC(=O)OC12COC1CC(O)C1(C)C(=O)C(O)C3=C(C)C(OC(=O)C(O)C(NC(=O)OC(C)(C)C)c4ccccc4)CC(O)(C(OC(=O)c4ccccc4)C21)C3(C)C (stereo unspecified) + CCn1c(-c2cccnc2C(C)OC)c2c3cc(ccc31)N1CCOC(CC(NC(=O)C(C(C)C)N(C)C(=O)C3(F)CCN(C(=O)C#CC(C)(C)N(C)C)CC3)C(=O)N3CCCC(N3)C(=O)OCC(C)(C)C2)C1 | active |
| Cc1nc(N2CCC3(CC2)COC(C)C3N)c(CO)nc1Sc1ccnc(N)c1Cl (stereo unspecified) + CCn1c(-c2cc(N3CCN(C)CC3)cnc2C(C)OC)c2c3cc(ccc31)-c1csc(n1)CC(NC(=O)C1CC1C)C(=O)N1CCCC(N1)C(=O)OCC(C)(C)C2 | active |
| Nc1ccn(C2OC(CO)C(O)C2(F)F)c(=O)n1 (stereo unspecified) + CCn1c(-c2cccnc2C(C)OC)c2c3cc(ccc31)N1CCOC(CC(NC(=O)C(C(C)C)N(C)C(=O)C3(F)CCN(C(=O)C#CC(C)(C)N(C)C)CC3)C(=O)N3CCCC(N3)C(=O)OCC(C)(C)C2)C1 | inactive |

Now for a further compound.
Data request: Check the results log: what was the call for CC(Nc1ccc2c(c1)OCCn1cc(N3C(=O)OCC3C(F)F)nc1-2)C(N)=O (stereo unspecified) + CCn1c(-c2cc(N3CCN(C)CC3)cnc2C(C)OC)c2c3cc(ccc31)-c1csc(n1)CC(NC(=O)C1CC1C)C(=O)N1CCCC(N1)C(=O)OCC(C)(C)C2 ?
Data returned: active

----------
The entries below are paired with their reported viability, T/C.
- System: LG0567-F671-PDC complex spheroids viability
- measurement_notes: Anticancer human tumor LG0567-F671-PDC cell line growth inhibition [RAS];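 further: spheroids exposed to compound for seven days before readout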
- test_context: second compound 0.1 µM; first compound 0.316 µM; stronger effect = lower value

Illustrative cases are given below, each with its answer.
| compound | result |
| --- | --- |
| NC1c2ccccc2OC12CCN(c1cnc3c(N4CCCc5ncccc54)n[nH]c3n1)CC2 (stereo unspecified) + C#Cc1c(F)ccc2cc(O)cc(-c3ncc4c(N5CC6CCC(C5)N6)nc(OCC56CCCN5CC(F)C6)nc4c3F)c12 | 10.1% |
| CC(=O)OC12COC1CC(O)C1(C)C(=O)C(O)C3=C(C)C(OC(=O)C(O)C(NC(=O)OC(C)(C)C)c4ccccc4)CC(O)(C(OC(=O)c4ccccc4)C21)C3(C)C (stereo unspecified) + C=CC(=O)N1CCN(c2nc(OCC3CCCN3C)nc3c(F)c(-c4nc(N)cc(C)c4C(F)(F)F)c(Cl)cc23)C(C)C1 | 10.9% |
| Cc1nc(N2CCC3(CC2)COC(C)C3N)c(CO)nc1Sc1ccnc(N)c1Cl (stereo unspecified) + C#Cc1c(F)ccc2cc(O)cc(-c3ncc4c(N5CC6CCC(C5)N6)nc(OCC56CCCN5CC(F)C6)nc4c3F)c12 | 21.6% |

Data request: Fill in the recorded viability, T/C for this compound, with LG0567-F671-PDC complex spheroids viability as test system: CCN1CCN(Cc2ccc(Nc3ncc(F)c(-c4cc(F)c5nc(C)n(C(C)C)c5c4)n3)nc2)CC1 + C=CC(=O)N1CCN(c2nc(OCC3CCCN3C)nc3c(F)c(-c4nc(N)cc(C)c4C(F)(F)F)c(Cl)cc23)C(C)C1
Data returned: 15%

Data request: Observed viability, T/C on LG0567-F671-PDC complex spheroids viability for CCC(CC)c1cc(NC2CCC(N)C2)n2nccc2n1 (stereo unspecified) + C#Cc1c(F)ccc2cc(O)cc(-c3ncc4c(N5CC6CCC(C5)N6)nc(OCC56CCCN5CC(F)C6)nc4c3F)c12 , please.
Data returned: 92.2%

Data request: Notebook entry, LG0567-F671-PDC complex spheroids viability assay: viability, T/C of C=CC(=O)N1CCN(c2nc(OCC3CCCN3C)nc3c(F)c(-c4nc(N)cc(C)c4C(F)(F)F)c(Cl)cc23)C(C)C1 (stereo unspecified) + C#Cc1c(F)ccc2cc(O)cc(-c3ncc4c(N5CC6CCC(C5)N6)nc(OCC56CCCN5CC(F)C6)nc4c3F)c12 = ?
Data returned: 11%

Data request: Observed viability, T/C on LG0567-F671-PDC complex spheroids viability for C=CC(=O)Nc1cc(Nc2nccc(-c3cn(C)c4ccccc34)n2)c(OC)cc1N(C)CCN(C)C + C=CC(=O)N1CCN(c2nc(OCC3CCCN3C)nc3c(F)c(-c4nc(N)cc(C)c4C(F)(F)F)c(Cl)cc23)C(C)C1 , please.
Data returned: 4.28%

Data request: Checklist item: viability, T/C tested on LG0567-F671-PDC complex spheroids viability, entry C[C@@H](NC(=O)c1ncnc(N)c1Cl)c1ncc(C(=O)Nc2cc(C(F)(F)F)c(Cl)cn2)s1 + C=CC(=O)N1CCN(c2nc(OCC3CCCN3C)nc3c(F)c(-c4nc(N)cc(C)c4C(F)(F)F)c(Cl)cc23)C(C)C1 , value?
Data returned: 15.8%

----------
- Tested on: LG0567-F671-PDC complex spheroids viability
- measurement_notes: Anticancer human tumor LG0567-F671-PDC cell line growth inhibition [RAS]; active = viability on the fitted dose curve at most 10% of control; inactive = the rest;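 further: spheroids exposed to compound for seven days before readout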
- test_context: second compound 0.1 µM; first compound 0.316 µM
Tick one outcome: 1 for active, 0 for inactive

| compound | class_assignment |
| --- | --- |
| O=C(c1ccc(F)c(F)c1Nc1ccc(I)cc1F)N1CC(O)([C@@H]2CCCCN2)C1 + C=CC(=O)N1CCN(c2nc(OCC3CCCN3C)nc3c(F)c(-c4nc(N)cc(C)c4C(F)(F)F)c(Cl)cc23)C(C)C1 | 1 |
| Cc1nc(N2CCC3(CC2)COC(C)C3N)c(CO)nc1Sc1ccnc(N)c1Cl (stereo not drawn) + C=CC(=O)N1CCN(c2nc(OCC3CCCN3C)nc3c(F)c(-c4nc(N)cc(C)c4C(F)(F)F)c(Cl)cc23)C(C)C1 | 1 |

Now consider a different compound.
Data request: Dear all, I need the recorded test outcome for O=C(c1ccc(F)c(F)c1Nc1ccc(I)cc1F)N1CC(O)([C@@H]2CCCCN2)C1 + C#Cc1c(F)ccc2cc(O)cc(-c3ncc4c(N5CC6CCC(C5)N6)nc(OCC56CCCN5CC(F)C6)nc4c3F)c12 , thank you.
Data returned: 0

The origin of these recorded values is PubChem BioAssay AID2060889.
